// data source = patent US8906925B2

ASSAY_SYSTEM: human recombinant serotonin (5-Hydroxytryptamine) 5-HT7 receptor (Homo sapiens)
Sequence (P34969 whole entry): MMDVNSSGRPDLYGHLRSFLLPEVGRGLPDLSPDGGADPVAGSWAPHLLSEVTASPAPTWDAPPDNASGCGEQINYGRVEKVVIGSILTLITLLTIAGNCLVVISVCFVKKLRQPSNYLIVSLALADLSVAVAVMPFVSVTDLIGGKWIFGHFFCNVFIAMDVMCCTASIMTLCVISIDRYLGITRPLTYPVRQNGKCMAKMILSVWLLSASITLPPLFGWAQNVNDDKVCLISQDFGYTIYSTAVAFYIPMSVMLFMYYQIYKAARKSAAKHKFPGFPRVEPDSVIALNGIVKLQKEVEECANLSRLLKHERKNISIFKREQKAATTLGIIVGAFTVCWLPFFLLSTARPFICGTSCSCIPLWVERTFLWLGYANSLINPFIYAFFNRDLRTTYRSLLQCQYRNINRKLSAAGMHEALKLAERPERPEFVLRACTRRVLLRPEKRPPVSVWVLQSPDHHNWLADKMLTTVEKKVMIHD
METHOD: Serotonin 5-HT7 radioligand binding ([3H]LSD)
PROTOCOL_CONDITIONS: compound at 1 μM; read-out: Inhibition of ligand binding, Serotonin 5-HT7 (percent inhibition of specific binding)
Would you mind telling me the reported inhibition at 1 µM of each entry?

Which inhibition at 1 µM is reported with human recombinant serotonin (5-Hydroxytryptamine) 5-HT7 receptor (Homo sapiens) for this entry: C=C(Cn1c2c(c3cccc(Cl)c31)CN(C)CC2)c1ccc(F)cc1 ?
75%

Which inhibition at 1 µM is reported with human recombinant serotonin (5-Hydroxytryptamine) 5-HT7 receptor (Homo sapiens) for this entry: C/C(=C/n1c2c(c3cc(C)ccc31)CN(C)CC2)c1ccncc1 ?
91%

Which inhibition at 1 µM is reported with human recombinant serotonin (5-Hydroxytryptamine) 5-HT7 receptor (Homo sapiens) for this entry: C/C(=C\n1c2c(c3cc(C)ccc31)CN(C)CC2)c1cc(F)c(F)cc1Cl ?
93%

Which inhibition at 1 µM is reported with human recombinant serotonin (5-Hydroxytryptamine) 5-HT7 receptor (Homo sapiens) for this entry: C/C(=C/n1c2c(c3cc(C)ccc31)CN(C)CC2)c1ccc(Cl)c(Cl)c1 ?
101%

Which inhibition at 1 µM is reported with human recombinant serotonin (5-Hydroxytryptamine) 5-HT7 receptor (Homo sapiens) for this entry: Cc1ccc2c(c1)c1c(n2/C=C/c2ccccc2)CCN(C)C1 ?
91%

Which inhibition at 1 µM is reported with human recombinant serotonin (5-Hydroxytryptamine) 5-HT7 receptor (Homo sapiens) for this entry: C/C(=C/n1c2c(c3cc(Cl)ccc31)CN(C)CC2)c1cccc(F)c1 ?
95%

Which inhibition at 1 µM is reported with human recombinant serotonin (5-Hydroxytryptamine) 5-HT7 receptor (Homo sapiens) for this entry: C=C(Cn1c2c(c3cc(Cl)ccc31)CN(C)CC2)c1ccc(F)cc1 ?
98%

###

ASSAY_SYSTEM: human dopamine D2L receptor (Homo sapiens)
METHOD: Dopamine D2L radioligand binding ([3H]Spiperone)
PROTOCOL_CONDITIONS: compound at 1 μM; […] [3H]Spiperone; read-out: Inhibition of ligand binding, Dopamine D2L (percent inhibition of specific binding)
Would you mind telling me the reported inhibition at 1 µM of each entry?
Could you give me the number in %? Just the number is fine.

What does the data say about its inhibition at 1 µM? Entry: Cc1ccc2c(c1)c1c(n2C=C(c2ccccc2)c2ccccc2)CCN(C)C1
54

What does the data say about its inhibition at 1 µM? Entry: C/C(=C\n1c2c(c3cc(C)ccc31)CNCC2)c1ccncc1
57

What does the data say about its inhibition at 1 µM? Entry: C/C(=C\n1c2c(c3cc(Cl)ccc31)CN(C)[C@H](C)C2)c1ccncc1
99

What does the data say about its inhibition at 1 µM? Entry: CN1CCc2c(c3cc(Cl)ccc3n2/C=C/c2ccccc2)C1
95

What does the data say about its inhibition at 1 µM? Entry: C/C(=C/n1c2c(c3cc(Cl)ccc31)CN(C)CC2)c1ccncc1
91

What does the data say about its inhibition at 1 µM? Entry: Cc1ccc2c(c1)c1c(n2/C(=C(/F)c2ccncc2)c2ccncc2)CCN(C)C1
6

What does the data say about its inhibition at 1 µM? Entry: C/C(=C\n1c2c(c3cc(C)ccc31)CN(C)CC2)c1cnc(C)cn1
25

What does the data say about its inhibition at 1 µM? Entry: C/C(=C\n1c2c(c3cc(Cl)ccc31)CN(CCCC1(c3ccc(F)cc3)OCCO1)CC2)c1ccncc1
97

###

Would you mind telling me the reported inhibition at 1 µM of each entry?
ASSAY_SYSTEM: human recombinant serotonin (5-Hydroxytryptamine) 5-HT2C receptor (Homo sapiens, UniProt P28335)
Construct: expressed in transfected cells; host or cells: Chinese hamster ovary (CHO-K1) cells
Sequence (P28335 33-458): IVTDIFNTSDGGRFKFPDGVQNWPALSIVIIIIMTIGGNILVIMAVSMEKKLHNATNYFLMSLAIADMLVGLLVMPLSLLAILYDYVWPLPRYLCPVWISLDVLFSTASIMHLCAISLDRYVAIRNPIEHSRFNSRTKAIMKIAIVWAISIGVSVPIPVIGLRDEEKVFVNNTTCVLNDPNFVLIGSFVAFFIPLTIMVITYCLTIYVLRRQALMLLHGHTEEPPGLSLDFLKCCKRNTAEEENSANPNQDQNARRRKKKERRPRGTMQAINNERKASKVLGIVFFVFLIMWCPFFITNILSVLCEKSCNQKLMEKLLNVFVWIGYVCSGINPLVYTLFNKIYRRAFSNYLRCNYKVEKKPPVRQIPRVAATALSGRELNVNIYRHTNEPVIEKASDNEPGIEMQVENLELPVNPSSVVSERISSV
METHOD: Serotonin 5-HT2C radioligand binding ([3H]Mesulergine)
PROTOCOL_CONDITIONS: compound at 1 μM; read-out: Inhibition of ligand binding, Serotonin 5-HT2C (percent inhibition of specific binding)

What does the data say about its inhibition at 1 µM? Entry: C=C(Cn1c2c(c3cc(C)ccc31)CN(C)CC2)c1ccc(O)cc1
99%

What does the data say about its inhibition at 1 µM? Entry: CN1CCc2c(c3cc(Cl)ccc3n2/C=C(\c2ccc(F)cc2)C2CC2)C1
98%

What does the data say about its inhibition at 1 µM? Entry: C/C(=C/n1c2c(c3cc(C)ccc31)CN(C)CC2)c1cc(F)c(F)cc1Cl
98%

What does the data say about its inhibition at 1 µM? Entry: C=C(Cn1c2c(c3cc(C)ccc31)CN(C)CC2)c1ccc(F)cc1
96%

What does the data say about its inhibition at 1 µM? Entry: CN1CCc2c(c3cccc(Cl)c3n2CC(C)(O)c2ccncc2)C1 (stereo not drawn)
93%

What does the data say about its inhibition at 1 µM? Entry: Cc1ccc2c(c1)c1c(n2CC(O)(c2ccccc2)c2ccc(F)cc2)CCN(C)C1 (stereo not drawn)
99%

What does the data say about its inhibition at 1 µM? Entry: C/C(=C\n1c2c(c3cc(C)ccc31)CN(C)CC2)c1ccc(Cl)c(Cl)c1
98%

What does the data say about its inhibition at 1 µM? Entry: CN1CCc2c(c3cc(C(=O)O)ccc3n2C#Cc2ccc(F)cc2)C1
-12%

What does the data say about its inhibition at 1 µM? Entry: Cc1ccc2c(c1)c1c(n2CC(O)(c2ccc(F)cc2)C2CCCCC2)CCN(C)C1 (stereo not drawn)
98%

What does the data say about its inhibition at 1 µM? Entry: C/C(=C\n1c2c(c3ccccc31)CN(C)CC2)c1ccncc1
87%

What does the data say about its inhibition at 1 µM? Entry: CN1CCc2c(c3cc(Cl)ccc3n2CC(C)(O)c2ccc(F)cc2)C1 (stereo not drawn)
95%

What does the data say about its inhibition at 1 µM? Entry: C/C(=C\n1c2c(c3cc(Cl)ccc31)CN(C)CC2)c1ccncc1
97%

What does the data say about its inhibition at 1 µM? Entry: C/C(=C\n1c2c(c3ccc(C(F)(F)F)cc31)CN(C)CC2)c1ccc(F)cc1
100%

What does the data say about its inhibition at 1 µM? Entry: C/C(=C\n1c2c(c3cc(Cl)ccc31)CN(C)CC2)c1ccccc1F
102%

What does the data say about its inhibition at 1 µM? Entry: C=C(Cn1c2c(c3cccc(F)c31)CN(C)CC2)c1ccc(F)cc1
97%

What does the data say about its inhibition at 1 µM? Entry: COc1ccc(C(C)(O)Cn2c3c(c4cc(C)ccc42)CN(C)CC3)cc1 (stereo not drawn)
95%

What does the data say about its inhibition at 1 µM? Entry: CN1CCc2c(c3ccccc3n2CC(C)(O)c2ccncc2)C1 (stereo not drawn)
72%

What does the data say about its inhibition at 1 µM? Entry: CN1CCc2c(c3cc(Cl)ccc3n2CC(O)c2cccnc2)C1 (stereo not drawn)
38%

###

ASSAY_SYSTEM: human dopamine D2L receptor (Homo sapiens, UniProt P14416)
Sequence (P14416 whole entry): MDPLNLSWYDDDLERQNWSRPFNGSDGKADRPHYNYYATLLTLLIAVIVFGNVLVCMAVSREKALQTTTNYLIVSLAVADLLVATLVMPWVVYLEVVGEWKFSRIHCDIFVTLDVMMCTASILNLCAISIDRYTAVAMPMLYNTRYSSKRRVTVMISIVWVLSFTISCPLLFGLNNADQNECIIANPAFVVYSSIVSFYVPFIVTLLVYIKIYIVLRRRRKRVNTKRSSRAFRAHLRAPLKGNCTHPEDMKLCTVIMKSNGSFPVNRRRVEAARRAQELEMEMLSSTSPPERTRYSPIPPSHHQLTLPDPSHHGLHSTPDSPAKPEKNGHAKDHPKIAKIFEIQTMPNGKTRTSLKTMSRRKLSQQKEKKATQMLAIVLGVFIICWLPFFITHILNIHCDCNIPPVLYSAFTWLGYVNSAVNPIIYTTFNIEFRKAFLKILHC
METHOD: Dopamine D2L radioligand binding ([3H]Spiperone)
PROTOCOL_CONDITIONS: percent inhibition of specific binding; compound at 1 μM; read-out: Inhibition of ligand binding, Dopamine D2L
Would you mind telling me the reported inhibition at 1 µM of each entry?
Could you give me the number in %? Just the number is fine.

What does the data say about its inhibition at 1 µM? Entry: C/C(=C\n1c2c(c3cc(C)ccc31)CN(C)CC2)C1CCCCC1 [Compound 320]
61

What does the data say about its inhibition at 1 µM? Entry: CCC(O)(Cn1c2c(c3cc(C)ccc31)CN(C)CC2)c1ccc(F)cc1 (stereo not drawn) [Compound 175]
24

What does the data say about its inhibition at 1 µM? Entry: C/C(=C\n1c2c(c3cc(Cl)ccc31)CN(C)CC2)c1ccccc1 [compound 106]
90

What does the data say about its inhibition at 1 µM? Entry: C/C(=C/n1c2c(c3cc(Cl)ccc31)CN(C)CC2)c1ccccc1Cl [Compound 237]
45

What does the data say about its inhibition at 1 µM? Entry: CCN1CCc2c(c3cc(C)ccc3n2/C=C(\C)c2ccncc2)C1 [Compound 269]
91

What does the data say about its inhibition at 1 µM? Entry: Cc1ccc2c(c1)c1c(n2CC(C)(O)c2ccncc2)CCN(C2CC2)C1 (stereo not drawn) [Compound 342]
11

What does the data say about its inhibition at 1 µM? Entry: C/C(=C\n1c2c(c3cc(C)ccc31)CN(C)CC2)c1cccc(F)c1 [Compound 226]
46

What does the data say about its inhibition at 1 µM? Entry: COc1ccc(/C(C)=C/n2c3c(c4cc(C)ccc42)CN(C)CC3)cc1 [Compound 236]
76

What does the data say about its inhibition at 1 µM? Entry: C/C=C/C(=C\n1c2c(c3cc(Cl)ccc31)CN(C)CC2)c1ccc(F)cc1 [Compound 204]
87

###

ASSAY_SYSTEM: human recombinant serotonin (5-Hydroxytryptamine) 5-HT2A receptor (Homo sapiens)
Construct: expressed in transfected cells; host or cells: Chinese hamster ovary (CHO-K1) cells
METHOD: Serotonin 5-HT2A radioligand binding ([3H]Ketanserin)
PROTOCOL_CONDITIONS: read-out: Inhibition of ligand binding, Serotonin 5-HT2A (percent inhibition of specific binding), compound at 0.1 μM
Decide by inhibition at 0.1 µM: equal to or exceeding 90% means T, less means F.

Given the entry C/C(=C\n1c2c(c3cc(C)ccc31)CN(C)CC2)c1ccc(F)cc1 [Compound 87] , answer whether its inhibition at 0.1 µM meets or surpasses 90%.
T

Given the entry Cc1ccc2c(c1)c1c(n2CC(C)(O)c2cnccn2)CCN(C)C1 (stereo not drawn) [Compound 200] , answer whether its inhibition at 0.1 µM meets or surpasses 90%.
F

Given the entry C/C(=C\n1c2c(c3cccc(F)c31)CN(C)CC2)c1ccncc1 [Compound 223] , answer whether its inhibition at 0.1 µM meets or surpasses 90%.
T

Given the entry C/C(=C\n1c2c(c3cc(C)ccc31)CN(C)CC2)c1ccc(Cl)cc1 [Compound 211] , answer whether its inhibition at 0.1 µM meets or surpasses 90%.
T

Given the entry C/C(=C\n1c2c(c3cc(Cl)ccc31)CN(C)CC2)c1ccncc1 [Compound 90] , answer whether its inhibition at 0.1 µM meets or surpasses 90%.
T

Given the entry CC(C)C(O)(Cn1c2c(c3cc(Cl)ccc31)CN(C)CC2)c1ccncc1 (stereo not drawn) [Compound 193] , answer whether its inhibition at 0.1 µM meets or surpasses 90%.
F

Given the entry C/C(=C\n1c2c(c3cc(F)c(F)cc31)CN(C)CC2)c1ccc(C)nc1 [Compound 255] , answer whether its inhibition at 0.1 µM meets or surpasses 90%.
F

Given the entry CC(C)/C(=C/n1c2c(c3cc(Cl)ccc31)CN(C)CC2)c1ccncc1 [Compound 265] , answer whether its inhibition at 0.1 µM meets or surpasses 90%.
T

Given the entry C/C(=C\n1c2c(c3cc(C)ccc31)CN(C)CC2)c1ccncc1 [Compound 88] , answer whether its inhibition at 0.1 µM meets or surpasses 90%.
F

Given the entry C/C(=C\n1c2c(c3cc(C)ccc31)CN(C)CC2)c1ccc(F)cc1F [Compound 276] , answer whether its inhibition at 0.1 µM meets or surpasses 90%.
T

Given the entry C/C(=C\n1c2c(c3cc(C(C)(C)C)ccc31)CN(C)CC2)c1ccncc1 [Compound 271] , answer whether its inhibition at 0.1 µM meets or surpasses 90%.
F

Given the entry CCC(O)(Cn1c2c(c3cc(Cl)ccc31)CN(C)CC2)c1ccc(F)cc1 (stereo not drawn) [Compound 78] , answer whether its inhibition at 0.1 µM meets or surpasses 90%.
F

Given the entry CCC(O)(Cn1c2c(c3cc(Cl)ccc31)CN(C)CC2)c1ccncc1 (stereo not drawn) [Compound 195] , answer whether its inhibition at 0.1 µM meets or surpasses 90%.
F
